# TESTED_ON: T1, human FOLR1 recombinant protein (extracellular domain of human folate receptor alpha) (human, UniProt P15328 25-233)
# T1 construct: Bought recombinant protein (Sino Biological); also called hFOLR1; FR-alpha
# METHOD: SPR (Biacore T200), single cycle kinetics, human FOLR1 immobilized on CM5, untagged VHH as analyte, 1:1 fit
ENDPOINT_LABEL: Kd (nM)

Consider the worked cases shown below.
{"BINDER": "untagged E90Q variant of VHH A2 (VHH, also called A2-E90Q) VHH: DVQLVESGGGLVQAGGSLRLSCAADEMKFSNYDLAWYRRAPGKQRELAAIITSGGSTNYPDSVKGRFTISRDNAKNTVYLQMNSLKPEDTAVYYCNALRPWPQFSDYWGQGTQVTVSS", "MEASUREMENT_UNITS": "nM", "READING": 0.25}
{"BINDER": "untagged D59E variant of VHH A1 (VHH, also called A1-D59E) VHH: DVQLVESGGGLVQPGGSLRLSCAASESIFSRNHMSWYRQAPGKQRELAAIITSEGNTNYPDSVKGRFTISRDNAKNTVYLQMNSLKPEDTAVYYCNTFGRSVAGFYDYWGQGTQVTVSS", "MEASUREMENT_UNITS": "nM", "READING": 0.083}
{"BINDER": "untagged M28T-E90Q variant of VHH A2 (VHH, also called A2-M28T-E90Q; A2-M28TE90Q) VHH: DVQLVESGGGLVQAGGSLRLSCAADETKFSNYDLAWYRRAPGKQRELAAIITSGGSTNYPDSVKGRFTISRDNAKNTVYLQMNSLKPEDTAVYYCNALRPWPQFSDYWGQGTQVTVSS", "MEASUREMENT_UNITS": "nM", "READING": 0.56}

A: untagged K29R-E90Q variant of VHH A2 (VHH, also called A2-K29R-E90Q) VHH: DVQLVESGGGLVQAGGSLRLSCAADEMRFSNYDLAWYRRAPGKQRELAAIITSGGSTNYPDSVKGRFTISRDNAKNTVYLQMNSLKPEDTAVYYCNALRPWPQFSDYWGQGTQVTVSS
B: untagged M28A-E90Q variant of VHH A2 (VHH, also called A2-M28A-E90Q) VHH: DVQLVESGGGLVQAGGSLRLSCAADEAKFSNYDLAWYRRAPGKQRELAAIITSGGSTNYPDSVKGRFTISRDNAKNTVYLQMNSLKPEDTAVYYCNALRPWPQFSDYWGQGTQVTVSS
Which gives the smaller Kd number: A or B ? Kindly state the label of the option you pick.
A
